# Experiment: Half life in human liver microsomes
# Assay type: ADME, Microsome
Measurement Type: half-life (h)
Expressed in h, but write only the number.

Supply measured half-life of `N[C@@H]1c2cccnc2[C@H](OC(=O)N2CCC(n3c(=O)[nH]c4ncccc43)CC2)CC[C@H]1c1cccc(F)c1F` in your reply.
1.38

Supply measured half-life of `O=C(O[C@@H]1CC[C@@H](c2cccc(F)c2F)[C@H](O)c2cccnc21)N1CCC(n2c(=O)[nH]c3ncccc32)CC1` in your reply.
1.17

* * *

# Experiment: Plasma concentration in Harlan marmoset at 7 mg/kg, sc at 15 mins
# Assay type: ADME, organism-based, Callithrix jacchus
# Set-up: dose 7 mg/kg, route subcutaneous
Measurement Type: concentration at 0.25 h (nM)
Expressed in nM, but write only the number.

Supply measured concentration at 0.25 h of `N[C@@H]1c2cccnc2[C@H](OC(=O)N2CCC(n3c(=O)[nH]c4ncccc43)CC2)CC[C@H]1c1cccc(F)c1F` in your reply.
400

* * *

# Experiment: Permeability of the compound at 100 uM at pH 7.4 after 4 hrs by PAMPA
# Assay type: ADME
# Conditions Used: read-out: permeability
Measurement Type: Papp at 4 h, 100 µM (×10⁻⁶ cm/s)
Expressed in ×10⁻⁶ cm/s, but write only the number.

Supply measured Papp at 4 h, 100 µM of N[C@@H]1c2cccnc2[C@H](OC(=O)N2CCC(n3c(=O)[nH]c4ncccc43)CC2)CC[C@H]1c1cccc(F)c1F [RIMEGEPANT] in your reply.
32

* * *

# Measurement Target: Calcitonin gene-related peptide type 1 receptor (Homo sapiens, UniProt O60894+Q16602)
# Sequence (Q16602 whole entry, one chain of several): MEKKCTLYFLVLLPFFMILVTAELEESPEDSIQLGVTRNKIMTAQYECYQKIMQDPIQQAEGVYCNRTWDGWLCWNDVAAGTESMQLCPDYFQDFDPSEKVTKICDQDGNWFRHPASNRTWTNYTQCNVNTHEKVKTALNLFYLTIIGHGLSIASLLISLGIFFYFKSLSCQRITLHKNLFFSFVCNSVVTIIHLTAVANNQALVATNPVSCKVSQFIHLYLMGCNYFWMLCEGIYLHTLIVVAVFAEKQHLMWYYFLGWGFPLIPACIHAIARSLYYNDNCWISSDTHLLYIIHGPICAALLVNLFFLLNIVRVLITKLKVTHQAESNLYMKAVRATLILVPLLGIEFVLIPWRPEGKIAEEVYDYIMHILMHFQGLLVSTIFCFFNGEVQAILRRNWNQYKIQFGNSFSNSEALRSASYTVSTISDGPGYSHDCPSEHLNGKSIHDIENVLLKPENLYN
# Experiment: Displacement of [125I]-CGRP from CGRP receptor in human SK-N-MC cells after 2 hrs by gamma scintillation counter analysis
Measurement Type: Ki
Respond with a number, then the unit of measure.

Supply measured Ki of `O=C(O[C@@H]1CC[C@@H](c2cccc(F)c2F)[C@H](O)c2cccnc21)N1CCC(n2c(=O)[nH]c3ncccc32)CC1` in your reply.
81 pM

Supply measured Ki of `N[C@@H]1c2cccnc2[C@H](OC(=O)N2CCC(n3c(=O)[nH]c4ncccc43)CC2)CC[C@H]1c1cccc(F)c1F` in your reply.
27 pM

Supply measured Ki of `[N-]=[N+]=N[C@@H]1c2cccnc2[C@H](OC(=O)N2CCC(n3c(=O)[nH]c4ncccc43)CC2)CC[C@H]1c1cccc(F)c1F` in your reply.
66 pM

Supply measured Ki of `O=C(O[C@@H]1CC[C@@H](c2cccc(F)c2F)[C@@H](O)c2cccnc21)N1CCC(n2c(=O)[nH]c3ncccc32)CC1` in your reply.
4300 pM

Supply measured Ki of O=C(O[C@@H]1CC[C@H](c2cccc(F)c2F)[C@H](O)c2cccnc21)N1CCC(n2c(=O)[nH]c3ncccc32)CC1 (mixture of isomers) in your reply.
670 pM

* * *

# Measurement Target: Cytochrome P450 2D6 (Homo sapiens)
# Sequence (P10635 whole entry): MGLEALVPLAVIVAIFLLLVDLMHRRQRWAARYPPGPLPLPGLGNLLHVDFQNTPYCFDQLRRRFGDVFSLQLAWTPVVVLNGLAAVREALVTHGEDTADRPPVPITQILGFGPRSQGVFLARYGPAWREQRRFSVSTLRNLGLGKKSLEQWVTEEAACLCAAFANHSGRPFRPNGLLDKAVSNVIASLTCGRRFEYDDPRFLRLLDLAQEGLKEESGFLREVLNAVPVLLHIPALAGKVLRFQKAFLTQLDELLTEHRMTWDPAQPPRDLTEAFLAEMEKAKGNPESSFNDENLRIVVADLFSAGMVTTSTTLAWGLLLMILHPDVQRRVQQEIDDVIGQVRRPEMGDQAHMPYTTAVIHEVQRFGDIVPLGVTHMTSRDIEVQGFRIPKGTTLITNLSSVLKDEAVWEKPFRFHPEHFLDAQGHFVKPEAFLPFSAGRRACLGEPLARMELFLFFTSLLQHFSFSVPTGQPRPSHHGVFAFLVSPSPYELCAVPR
# Experiment: Inhibition of human recombinant CYP2D6 using 3-[2-(N,N-diethyl-Nmethylamino) ethyl]-7-methoxy-4-methylcoumarin as substrate after 45 mins by fluorescence assay
pIC50: −log10 of the molar value.
Measurement Type: pIC50

Supply measured pIC50 of `N[C@@H]1c2cccnc2[C@H](OC(=O)N2CCC(n3c(=O)[nH]c4ncccc43)CC2)CC[C@H]1c1cccc(F)c1F` in your reply.
≤ 4.70
